experimentSummary: Tmax in lungs of mice at the oral dose of 50 mg/kg
Format: ADME, organism-based, Lung
Set-up: dose 50 mg/kg, route oral
protocolConditions: mouse
experimentalEndpoint: Tmax (h)
Respond with the bare value in h.

Lab book: Tmax of CC[C@H]1OC(=O)C[C@@H](O)[C@H](C)[C@@H](OC2OC(C)C(O)C(N(C)C)C2O)[C@@H](C/C=C/C(C)=O)C[C@@H](C)C(=O)/C=C/C(C)=C/[C@@H]1COC1OC(C)C(O)C(OC)C1OC (stereo partly specified) noted as 2

* * *

Each entry below lists one item and its recorded MIC value.
Test system: Staphylococcus aureus
experimentSummary: Antibacterial activity against Staphylococcus aureus PSCB-0330
Format: functional
Kindly provide the numeric value in µg/mL only, without the unit symbol.

CC[C@H]1OC(=O)C[C@@H](O)[C@H](C)[C@@H](OC2OC(C)C(O)C(N(C)C)C2O)[C@@H](CC=O)C[C@@H](C)C(=O)CCC(C)C[C@@H]1COC1OC(C)C(O)C(OC)C1OC (stereo partly drawn); 128

Consider the additional molecule presented here.
Summary: CC[C@H]1OC(=O)C[C@@H](O)[C@H](C)[C@@H](OC2OC(C)C(OC3CC(C)(O)C(O)C(C)O3)C(N(C)C)C2O)[C@@H](CC=O)C[C@@H](C)C(=O)CCC(C)C[C@@H]1COC1OC(C)C(O)C(OC)C1OC (stereo partly drawn) , Staphylococcus aureus, MIC = 64

* * *

Item-by-item account of MIC
Tested on: Haemophilus influenzae
experimentSummary: Antibacterial activity against Haemophilus influenzae ATCC 49247
Format: functional
Response body: numeric value in µg/mL, unit text excluded.

Worked cases, MIC given:
CC[C@H]1OC(=O)C[C@@H](O)[C@H](C)[C@@H](OC2OC(C)C(O)C(N(C)C)C2O)[C@@H](C/C=C/C(C)=O)C[C@@H](C)C(=O)/C=C/C(C)=C/[C@@H]1COC1OC(C)C(O)C(OC)C1OC (stereo partly drawn); 4
CCOC(=O)/C=C/C[C@H]1C[C@@H](C)C(=O)/C=C/C(C)=C/[C@H](COC2OC(C)C(O)C(OC)C2OC)[C@@H](CC)OC(=O)C[C@@H](NN(C(=O)OCC)C(=O)OCC)[C@H](C)[C@H]1OC1OC(C)C(O)C(N(C)C)C1O (stereo partly drawn); 128

Now for a further compound.
Reported MIC for CC[C@H]1OC(=O)CC(=O)[C@H](C)[C@@H](O[C@@H]2O[C@@H](C)[C@@H](O)[C@@H](N(C)C)[C@H]2O)[C@H]2C[C@H](O)[C@@](C)(C2)C(=O)/C=C/C(C)=C/[C@@H]1CO[C@@H]1O[C@@H](C)[C@@H](O)[C@@H](OC)[C@@H]1OC was 128
